Target: Angiotensin II receptor (AT-1) type-1 (Rattus norvegicus, UniProt P29089+P25095)
Sequence (P29089 whole entry): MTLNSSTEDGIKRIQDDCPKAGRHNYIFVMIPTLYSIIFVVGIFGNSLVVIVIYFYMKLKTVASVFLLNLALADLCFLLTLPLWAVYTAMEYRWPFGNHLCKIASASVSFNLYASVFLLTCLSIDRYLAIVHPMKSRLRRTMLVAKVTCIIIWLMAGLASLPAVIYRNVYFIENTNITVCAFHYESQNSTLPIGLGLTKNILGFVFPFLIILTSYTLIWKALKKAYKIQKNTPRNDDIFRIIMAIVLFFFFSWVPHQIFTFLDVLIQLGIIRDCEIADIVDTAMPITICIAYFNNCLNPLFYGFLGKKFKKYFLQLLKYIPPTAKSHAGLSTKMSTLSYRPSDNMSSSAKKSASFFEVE
Sequence (P25095 whole entry): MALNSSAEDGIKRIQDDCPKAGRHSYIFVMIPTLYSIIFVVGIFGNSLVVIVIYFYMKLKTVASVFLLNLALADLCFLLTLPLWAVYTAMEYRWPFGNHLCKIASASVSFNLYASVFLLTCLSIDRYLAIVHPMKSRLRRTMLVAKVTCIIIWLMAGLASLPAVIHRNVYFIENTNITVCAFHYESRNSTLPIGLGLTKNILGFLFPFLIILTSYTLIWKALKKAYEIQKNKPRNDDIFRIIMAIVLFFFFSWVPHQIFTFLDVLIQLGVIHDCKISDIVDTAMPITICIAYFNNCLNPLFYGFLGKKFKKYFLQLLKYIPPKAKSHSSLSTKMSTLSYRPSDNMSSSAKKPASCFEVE
Assay: Inhibitory concentration against binding of [125I]angiotensin II to rat liver expressing Angiotensin II receptor
value-kind: IC50 (nM)

Worked set:
# molecule, measurement-unit, reported-value
measured = [
    ("CCCCc1nc(-n2cccc2)c(C(=O)O)n1Cc1ccc(-c2ccccc2-c2nn[nH]n2)cc1", "nM", 1.57),
    ("CCCc1nc(-n2cccc2)c(/C=C(\\C)C(=O)O)n1Cc1ccc(-c2ccccc2-c2nn[nH]n2)cc1", "nM", 2.5),
    ("CCCc1nc(-n2cccc2C(=O)C(F)(F)F)c(C#N)n1Cc1ccc(-c2ccccc2-c2nn[nH]n2)cc1", "nM", 171),
    ("CCCc1nc(-n2c(C)ccc2C)c(/C=C/C(=O)O)n1Cc1ccc(-c2ccccc2-c2nn[nH]n2)cc1", "nM", 3.32),
    ("CCCc1nc(-n2cccc2)cn1Cc1ccc(-c2ccccc2-c2nn[nH]n2)cc1", "nM", 5.6),
]

P: CCCCc1nc(-n2cccc2)cn1Cc1ccc(-c2ccccc2-c2nn[nH]n2)cc1
Q: CCCc1nc(-n2ccc(C(=O)OC)c2C)c(C(=O)OC)n1Cc1ccc(-c2ccccc2-c2nn[nH]n2)cc1
stdin: Lowest IC50? choose P or Q Label of pick, please.
stdout: Q
(Q: 18.8 nM, P: 27 nM)

P: CCCc1nc(-n2c(C)ccc2CCC)c(C(=O)OC)n1Cc1ccc(-c2ccccc2-c2nn[nH]n2)cc1
Q: CCCCc1nc(-n2cccc2C(=O)C(F)(F)F)c(C(=O)O)n1Cc1ccc(-c2ccccc2-c2nn[nH]n2)cc1
R: CCCc1nc(-n2cccc2C(O)C(F)(F)F)c(C(=O)O)n1Cc1ccc(-c2ccccc2-c2nn[nH]n2)cc1 (configuration not stated)
S: CCCc1nc(-n2ccc(C(=O)OCC)c2)c(C(=O)OC)n1Cc1ccc(-c2ccccc2-c2nn[nH]n2)cc1
stdin: Rank by IC50 (largest to smallest). Please respond by ranking the labels in the order requested.
stdout: S, P, Q, R
(S: 158 nM, P: 15.1 nM, Q: 2.37 nM, R: 1.04 nM)

A: CCCc1nc(-n2cccc2C(O)C(F)(F)F)c(C#N)n1Cc1ccc(-c2ccccc2-c2nn[nH]n2)cc1 (configuration not stated)
B: CCCc1nc(-n2c(Cl)ccc2Cl)c(C(=O)O)n1Cc1ccc(-c2ccccc2-c2nn[nH]n2)cc1
C: CCCc1nc(-n2ccc(C(=O)OC)c2C)c(C(=O)O)n1Cc1ccc(-c2ccccc2-c2nn[nH]n2)cc1
D: CCCc1nc(-n2cccc2C(=O)O)c(C#N)n1Cc1ccc(-c2ccccc2-c2nn[nH]n2)cc1
stdin: Rank the items in ascending order with respect to IC50. Please respond by ranking the labels in the order requested.
stdout: B, C, D, A

I: CCCc1nc(-n2cccc2)c(C#N)n1Cc1ccc(-c2ccccc2-c2nn[nH]n2)cc1
II: CCCc1nc(-n2cccc2C(=O)C(F)(F)F)c(C(=O)OC)n1Cc1ccc(-c2ccccc2-c2nn[nH]n2)cc1
stdin: Lab notebook, comparison: I versus II , higher IC50 goes to which? Label of pick, please.
stdout: I
(I: 332 nM, II: 3.64 nM)

meta.source: ChEMBL document CHEMBL1127049
